Give measured GI50 for each item. Keep answers brief.
test system: SK-OV-3 ovarian; assay: NCI tumour cell line growth inhibition, 48 h

The cases that follow already have their GI50 on record.
[N-]=[N+]=NCCCn1c2c(c3ccc([N+](=O)[O-])cc3c1=O)C(=O)c1ccccc1-2; > 100000 nM
Cn1c(Cl)c(/C=C2/C(=O)Nc3ccccc32)c2ccccc21; 732 nM
CCN1C(=O)c2ccc3c4c(ccc(c24)C1=O)C(=O)N(CCCNCc1ccccc1OC)C3=O; 2280 nM

Please look at the following compound next.
What the record says about O=C(Oc1ccc[nH]c1=O)c1cc([N+](=O)[O-])cc([N+](=O)[O-])c1 : GI50 is > 100000 nM

* * *

system: MCF7 breast; assay: NCI tumour cell line growth inhibition, 48 h
readout label: TGI

Use the examples below as a reference point.
CCOC(=O)CCC(NC(=O)c1ccc(Nc2nc3ccc(C(F)(F)F)cc3nc2-c2ccccc2)cc1)C(=O)OCC (stereo unspecified); > 100 µM
O=C(O)c1ccc(CN2CCC(CN[C@@H]3C[C@H]3c3ccccc3)CC2)cc1; > 100 µM
Cc1c(-c2ccccc2)cc(O)c2nc3ccccc3n12; > 100 µM
Cc1ccc(C(=O)N/N=C(\N=Nc2cccc([N+](=O)[O-])c2)c2ccc(N(CCC#N)CCC#N)cc2C)cc1; > 68.1 µM
COc1ccc(C(C#N)NC23CC4CC(CC(C4)C2)C3)cc1 (stereo unspecified); > 100 µM

Hi! Can you tell me TGI for each of these compounds?
1. C=C(CCOC)CCC1CCCCC(CN(C)C)C1=O (stereo unspecified)
2. CC(=O)OC1OC([C@H]2c3cccc(O)c3C(=O)c3c(O)cc(C)cc32)C(O)C(O)C1O (stereo partly specified)
3. C[C@]12CCc3sc(Nc4ccc(OC(F)(F)F)cc4)nc3C1=CC[C@@H]1[C@@H]2CC[C@]2(C)C(=O)CC[C@@H]12
4. COC(=O)C1=C(OC(=O)/C(=C/c2ccccc2)c2ccc(Cl)cc2Cl)C(C(=O)OC)[C@@]2(O)[C@@H](C(=O)OC)[C@H](C)C[C@@H]1[C@@H]2C(=O)OC (stereo partly specified)
5. C#CCn1c(=O)c(I)cn(/C(=C/C(=O)OCC)C(=O)OCC)c1=O
6. Oc1ccc2ccccc2c1N=Nc1cccc2ccccc12

1. > 100 µM
2. 0.803 µM
3. 4.14 µM
4. > 100 µM
5. 6.16 µM
6. > 100 µM

* * *

Task for the reader: assign each of the following compounds its reported TGI.
system: CAKI-1 renal; test: NCI tumour cell line growth inhibition, 48 h

O=C1COc2cc(NC(=S)Nc3ccccc3)ccc2N1; > 100 µM
COc1ccc(-c2c(C(C)=O)c(-c3ccccc3)n(C3OC(CO)C(O)C(O)C3O)c(=S)c2C#N)cc1 (stereo unspecified); > 100 µM
CCOP(=Nc1ccc(N(C)C)cc1)(OCC)OCC; > 100 µM
O=C1/C(=C/C=C/c2ccccc2)CCC1CNc1ccccc1 (stereo unspecified); > 100 µM
C=C(CCOC)CCC1CCCCC(CN(C)C)C1=O (stereo unspecified); > 100 µM

Report TGI for each item below.
1. CN(C)CCOc1ccc([N+](=O)[O-])c2cccnc12
2. C=C1c2c(C)nn(-c3ccc(C#CCOC4OC(CO)C(O)C(O)C4O)cc3)c2N(C)C23C[C@H]1C1(C)c4c(C)nn(-c5ccc(C#CCOC6OC(CO)C(O)C(O)C6O)cc5)c4N(C)C(C)(C[C@H]12)C3 (stereo partly specified)
3. Cc1cn(-c2cc(NC(=O)c3cccc(C#Cc4cccc5[nH]nc(N)c45)c3)cc(C(F)(F)F)c2)cn1
4. COc1ccc2c(c1)OC1=C(C(=O)OC1)C2c1cc(OC)c2c(c1)OCCO2 (stereo unspecified)
5. COc1ccc(C=O)cc1O[Si](C)(C)C(C)(C)C
6. Cc1nnc(-c2ccc(C)c(-c3ccc(C(=O)Nc4cccc(C#N)c4)cc3)c2)o1
7. C=C(C)[C@@H]1CC[C@]2(COCCCN)CC[C@]3(C)[C@H](CC[C@@H]4[C@@](C)(CCCNCCCN)[C@H](C(=C)C)CC[C@]43C)[C@@H]12
8. Nc1cc([N+](=O)[O-])ccc1C(=O)N1CCC[C@H]1CO

1: > 100 µM; 2: 11.6 µM; 3: 16.6 µM; 4: > 100 µM; 5: > 100 µM; 6: > 25 µM; 7: 3.13 µM; 8: > 100 µM

List reported TGI for each of these compounds:
1. CCN1C(=O)c2ccc3c4c(ccc(c24)C1=O)C(=O)N(CCCNCc1ccccc1OC)C3=O
2. Cc1c(N2C(=O)C(Cl)C2/C=C/c2ccccc2)c(=O)n(-c2ccccc2)n1C (stereo unspecified)
3. COc1ccc2c(c1)/C(=C\c1c(Cl)[nH]c3cc(C)c(OC)cc13)C(=O)N2

1. 2.47 µM
2. > 100 µM
3. 20.4 µM
